# ASSAY_TEXT: amyloid nucleation score (Sup35N fusion, yeast selection) (log enrichment); library NNK2; higher = more nucleation; inactive = no reads after selection;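 further: zero at mode of non-aggregating sequences after 7 days selection at 30°C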
Classification field: satisfied = amyloid nucleation score at or over 0.3; not satisfied = amyloid nucleation score under 0.3.

Example entries and their recorded answers appear below.
[
  {
    "SUBSTANCE": "IDVLYCHDSL",
    "CATEGORY": "satisfied"
  },
  {
    "SUBSTANCE": "YASTRRIGLEDIVW",
    "CATEGORY": "not satisfied"
  },
  {
    "SUBSTANCE": "DEKIYLVSG",
    "CATEGORY": "satisfied"
  },
  {
    "SUBSTANCE": "FIDRMKMLWGLKSWDFQCHW",
    "CATEGORY": "satisfied"
  },
  {
    "SUBSTANCE": "FHLFSVGTEGTPRRRKFAGD",
    "CATEGORY": "not satisfied"
  },
  {
    "SUBSTANCE": "EITFLCSGKSDSDMYVGFAS",
    "CATEGORY": "satisfied"
  }
]

Request: Identify whether the reported amyloid nucleation score of the following substance is 0.3 or greater: HSRQCFTHFGYFTGLGRVRV
Response: satisfied

Request: Identify whether the reported amyloid nucleation score of the following substance is 0.3 or greater: WFIASLLYISLWFYICSTMS
Response: satisfied

Request: Identify whether the reported amyloid nucleation score of the following substance is 0.3 or greater: RLKAPLPYDEIFQLFVIGEI
Response: satisfied

Request: Identify whether the reported amyloid nucleation score of the following substance is 0.3 or greater: TFILFGRFEQTKVSVW
Response: satisfied

Request: Identify whether the reported amyloid nucleation score of the following substance is 0.3 or greater: CLLLRVTR
Response: not satisfied

Request: Identify whether the reported amyloid nucleation score of the following substance is 0.3 or greater: SYGNDNDGTWWS
Response: satisfied

Request: Identify whether the reported amyloid nucleation score of the following substance is 0.3 or greater: TSQTCLEVSRSCCVGMRKSK
Response: not satisfied

---

The substances listed here are annotated with their amyloid nucleation score.
# ASSAY_TEXT: amyloid nucleation score (Sup35N fusion, yeast selection) (log enrichment); library NNK1; higher = more nucleation; inactive = no reads after selection
Would you mind answering with just the numeric figure?

[
  {
    "SUBSTANCE": "ENNTGSVETLYRCSEKLVLE",
    "amyloid nucleation score": 0.228
  },
  {
    "SUBSTANCE": "SETYVLLKNPSDNIMQKWCV",
    "amyloid nucleation score": 0.147
  },
  {
    "SUBSTANCE": "DYFSRKPGNCFWFAIARDNT",
    "amyloid nucleation score": -0.398
  },
  {
    "SUBSTANCE": "KNFHELTVDYVCVLYREQLF",
    "amyloid nucleation score": 0.115
  }
]

Request: Give recorded amyloid nucleation score. FLRHLSSCCHLATLCVDWGA
Response: -0.103

Request: Give recorded amyloid nucleation score. VSIRFSCRRIYNFLVEFPLG
Response: -0.102

Request: Give recorded amyloid nucleation score. HIQLIYVTIVLESRLSWWRI
Response: 0.934

Request: Give recorded amyloid nucleation score. CIEDVCCS
Response: -0.016

Request: Give recorded amyloid nucleation score. NSLKCVRSIVKRYSACHRV
Response: 0.387

Request: Give recorded amyloid nucleation score. FCLSMVVDWVGR
Response: -0.342

Request: Give recorded amyloid nucleation score. YSSICGSKLLRSGGCRGVGH
Response: -0.083

Request: Give recorded amyloid nucleation score. MFEFKKPD
Response: -0.015

Request: Give recorded amyloid nucleation score. GLVSRLCRFHFMCIACNPKL
Response: 0.585

Request: Give recorded amyloid nucleation score. LQGCGYYKFGITEEWH
Response: 0.415

Request: Give recorded amyloid nucleation score. LRDNMLSEGMQLYCMARASA
Response: -0.201
